Molecular target: Kv7.2 (Homo sapiens, UniProt O43526)
Construct: expressed in transfected cells
Assay: Activation of Kv7.2 (in vitro assay, concentration response curve)
Format: cell-based
Settings: Kv7.2 activation max %
Experimental: The term “EC50” in this application is defined as: the agonistic effect of a compound can be determined by testing the compound in an in vitro assay as described herein, whereby the effect of the compound is measured across a range of compound concentrations. The resulting data is plotted as a concentration response curve, which typically follows a sigmoidal function, whereby the concentration of the compound is plotted on the x axis and the response (agonistic effect) is plotted on the y axis. […]
property: Emax (%)

C[C@H](F)COc1cc(CNC(=O)NC23CCC(F)(CC2)CC3)ccn1 [Example 156] :: 50

a = COC(CNC(=O)NCc1ccnc(OC(F)F)c1)C(F)(F)F (stereo not shown) [Example 119]
b = O=C(NCc1ccnc(OC(F)F)c1)Nc1ccc(F)c(F)c1 [Example 186]
Q: Between a and b , whose measured Emax reads higher? Provide the label of your selected option as the answer.
A: b
(b: 62%, a: 41%)
